- System: BRAF G469A (Homo sapiens, UniProt P15056, G469A)
- Construct: Horizon Discovery (HCT-116 BRAF−/− cells); host or cells: HCT-116 BRAF−/− cells, clone 34, lentiviral transduction
- Sequence (P15056 whole entry G469A): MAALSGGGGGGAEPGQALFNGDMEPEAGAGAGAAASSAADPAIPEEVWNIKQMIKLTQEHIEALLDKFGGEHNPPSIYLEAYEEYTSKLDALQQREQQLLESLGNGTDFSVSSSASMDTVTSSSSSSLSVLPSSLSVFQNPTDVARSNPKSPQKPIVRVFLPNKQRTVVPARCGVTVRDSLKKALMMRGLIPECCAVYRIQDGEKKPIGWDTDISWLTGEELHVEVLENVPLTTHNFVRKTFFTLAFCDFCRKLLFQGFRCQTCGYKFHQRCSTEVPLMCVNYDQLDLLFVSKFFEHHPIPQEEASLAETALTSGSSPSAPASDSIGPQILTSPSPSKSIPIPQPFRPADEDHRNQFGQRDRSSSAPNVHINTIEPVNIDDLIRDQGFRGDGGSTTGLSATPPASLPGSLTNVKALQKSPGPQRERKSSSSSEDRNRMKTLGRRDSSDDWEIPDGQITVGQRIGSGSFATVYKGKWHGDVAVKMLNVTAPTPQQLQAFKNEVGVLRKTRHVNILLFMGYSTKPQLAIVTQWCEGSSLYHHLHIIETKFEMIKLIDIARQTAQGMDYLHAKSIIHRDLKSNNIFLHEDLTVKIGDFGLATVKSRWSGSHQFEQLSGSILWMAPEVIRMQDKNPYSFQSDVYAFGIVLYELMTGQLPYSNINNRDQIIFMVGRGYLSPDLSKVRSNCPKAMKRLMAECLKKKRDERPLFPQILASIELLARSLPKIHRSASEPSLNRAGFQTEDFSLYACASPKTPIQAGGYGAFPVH
- Assay protocol: BRAF HiBiT degradation assay, C-terminal HiBiT-tagged BRAF G469A overexpressed in HCT-116 BRAF−/− cells (clone 34), Nano-Glo HiBiT Lytic assay
- Format: cell-based
- Test conditions: Class 2; BRAF G469A; DC50 at 50%: fitted conc. at Y=50
Experimental endpoint: DC50

In the examples that follow, each entry is paired with its recorded DC50.
• CCCS(=O)(=O)Nc1cccc(-c2nc(C(C)(C)C)sc2-c2ccnc(NC3CC4(CCN(CC5CCN(c6ccc7c(=O)n(C8CCC(=O)NC8=O)ccc7c6)CC5)CC4)C3)n2)c1F (racemic) [Compound 129] = > 500 nM
• CCCS(=O)(=O)Nc1cccc(-c2nc(C(C)(C)C)sc2-c2ccnc(Nc3cnn(C4CCN(CC[C@H]5CCN(c6ccc(C7CCC(=O)NC7=O)cn6)C5)CC4)c3)n2)c1F (mixture of isomers) [Compound 77] = > 500 nM
• CCCS(=O)(=O)Nc1cccc(-c2nc(C(C)(C)C)sc2-c2ccnc(Nc3ccc(N4CCN(C(=O)CC5CCN(c6ccc(C7CCC(=O)NC7=O)cn6)CC5)CC4)c(F)c3)n2)c1F (racemic) [Compound 48] = > 500 nM
• CCCS(=O)(=O)Nc1cccc(-c2nc(C3CCC4(CC3)CN(C(=O)CCCCCc3ccc5c(c3)C(=O)N(C3CCC(=O)NC3=O)C5)C4)sc2-c2ccnc(N)n2)c1F (racemic) [Compound 234] = > 500 nM

// below: DC50 requested for another compound
Quick check: DC50 of CCCS(=O)(=O)Nc1cccc(-c2nc(C(C)(C)C)sc2-c2ccnc(Nc3ccc(C4CCN(C(=O)CN5CCN(c6cc(C7CCC(=O)NC7=O)ccn6)CC5)CC4)cc3)n2)c1F (racemic) [Compound 174] ?
> 500 nM

* * *

- System: BRAF G469A (Homo sapiens, UniProt P15056, G469A)
- Construct: Horizon Discovery (HCT-116 BRAF−/− cells); host or cells: HCT-116 BRAF−/− cells, clone 34, lentiviral transduction
- Assay protocol: BRAF HiBiT degradation assay, C-terminal HiBiT-tagged BRAF G469A overexpressed in HCT-116 BRAF−/− cells (clone 34), Nano-Glo HiBiT Lytic assay
- Format: cell-based
- Test conditions: Class 2; BRAF G469A; DC50 at 50%: fitted conc. at Y=50
DC50: recorded values

- CCCS(=O)(=O)Nc1cccc(-c2cn(-c3ccc(N4CCN(CC5CCN(c6ccc([C@H]7CCC(=O)NC7=O)cn6)CC5)CC4)cc3)nc2-c2ccncc2)c1F: 10 to 50 nM
- CCCS(=O)(=O)Nc1cccc(-c2cn(-c3ccc(C4CCN(CC5CCN(c6ccc([C@@H]7CCC(=O)NC7=O)cc6)CC5)CC4)cc3)nc2-c2ccncc2)c1F: > 500 nM
- CCN(C)S(=O)(=O)Nc1cccc(-c2nc(C3CCN(C(=O)C4CCN(C(=O)C5CCN(c6ccc(C7CCC(=O)NC7=O)cn6)CC5)CC4)CC3)sc2-c2ccnc(N)n2)c1F (racemic): 10 to 50 nM
- CCCS(=O)(=O)Nc1cccc(-c2nc(C3CCN(CC4CCN(C[C@H]5CC[C@H](Oc6ccc(C7CCC(=O)NC7=O)cc6)CC5)CC4)CC3)sc2-c2ccnc(N)n2)c1F (mixture of isomers): > 500 nM

// below: DC50 requested for another molecule
Quick check: DC50 of CCCS(=O)(=O)Nc1cccc(-c2nc(C(C)(C)C)sc2-c2ccnc(Nc3ccc(C4CCN(C(=O)C5CN(c6ccc(C7CCC(=O)NC7=O)cn6)C5)CC4)cc3)n2)c1F (racemic) ?
> 500 nM

* * *

DC50: recorded values
- System: BRAF V600E (Homo sapiens, UniProt P15056, V600E)
- Construct: endogenous C-terminal HiBiT fusion tag on BRAF V600E allele; endogenous in cells; host or cells: A375 clone 1F10 (CRISPR-Cas9 knock-in of the HiBiT tag; parental A375 from ATCC)
- Sequence (P15056 whole entry V600E, the tested form may be a part): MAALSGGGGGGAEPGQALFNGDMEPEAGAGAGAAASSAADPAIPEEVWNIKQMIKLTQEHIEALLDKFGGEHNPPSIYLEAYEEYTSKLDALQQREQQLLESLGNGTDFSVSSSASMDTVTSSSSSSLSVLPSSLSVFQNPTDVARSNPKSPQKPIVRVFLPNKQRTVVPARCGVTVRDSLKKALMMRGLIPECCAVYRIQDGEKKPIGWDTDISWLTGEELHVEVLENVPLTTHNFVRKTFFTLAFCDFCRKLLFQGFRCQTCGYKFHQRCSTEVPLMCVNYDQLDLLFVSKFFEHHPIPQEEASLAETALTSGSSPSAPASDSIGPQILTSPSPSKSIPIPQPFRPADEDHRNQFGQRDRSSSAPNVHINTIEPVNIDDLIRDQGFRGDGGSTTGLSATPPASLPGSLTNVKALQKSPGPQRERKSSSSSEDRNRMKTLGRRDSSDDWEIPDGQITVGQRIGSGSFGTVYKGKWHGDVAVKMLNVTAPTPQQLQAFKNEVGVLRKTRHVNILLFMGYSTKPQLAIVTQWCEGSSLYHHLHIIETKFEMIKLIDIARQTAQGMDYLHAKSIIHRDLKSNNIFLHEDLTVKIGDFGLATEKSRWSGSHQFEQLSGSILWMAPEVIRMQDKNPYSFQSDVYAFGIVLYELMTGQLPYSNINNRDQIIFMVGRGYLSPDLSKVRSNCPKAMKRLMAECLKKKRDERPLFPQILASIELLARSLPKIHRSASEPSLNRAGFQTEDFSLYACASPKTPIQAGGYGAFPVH
- Assay protocol: BRAF HiBiT degradation assay, C-terminal HiBiT-tagged BRAF V600E A375 cells (clone 1F10), Nano-Glo HiBiT Lytic assay
- Assay type: cell-based
- Test conditions: A375 (BRAF V600E); DC50 at 50%: fitted conc. at Y=50

In the examples that follow, each entry is paired with its recorded DC50.
* CCCS(=O)(=O)Nc1cccc(-c2nc(C)sc2-c2ccnc(Nc3ccc(N4CCN(CC5CCN(c6ccc(C7CCC(=O)NC7=O)cn6)CC5)CC4)cn3)n2)c1F (racemic) | < 10 nM
* CCCS(=O)(=O)Nc1cccc(-c2nc(C(C)(C)C)sc2-c2ccnc(NC3CC4(C3)CN(CC[C@H]3CCN(c5ccc(C6CCC(=O)NC6=O)cn5)C3)C4)n2)c1F (mixture of isomers) | 50 to 500 nM
* CCCS(=O)(=O)Nc1cccc(-c2nc(C(C)(C)C)sc2-c2ccnc(Nc3ccc(N4CCN(C(=O)C5CCN(c6ccc(C7CCC(=O)NC7=O)cc6)CC5)CC4)c(F)c3)n2)c1F (racemic) | < 10 nM
* CCCS(=O)(=O)Nc1cccc(-c2nc(C(C)(C)C)sc2-c2ccnc(Nc3cnn(C4CCN(C(=O)[C@H]5CC[C@H](Oc6ccc(C7CCC(=O)NC7=O)cc6)CC5)CC4)c3)n2)c1F (mixture of isomers) | < 10 nM
* CCCS(=O)(=O)Nc1cccc(-c2nc(C(C)(C)C)sc2-c2ccnc(Nc3cnn(CC4CCN(C(=O)CN5CCC(c6ccc(NC7CCC(=O)NC7=O)cc6)CC5)CC4)c3)n2)c1F (racemic) | 10 to 50 nM
* CCCS(=O)(=O)Nc1cccc(-c2nc(C3CCN(C(=O)C4CCN(C(=O)C5CCN(c6ccc(C7CCC(=O)NC7=O)cn6)CC5)CC4)CC3)sc2-c2ccnc(NC3CC3)n2)c1F (racemic) | < 10 nM

Notebook entry, BRAF V600E (Homo sapiens, UniProt P15056, V600E) assay: DC50 of CCCS(=O)(=O)Nc1cccc(-c2nc(C(C)(C)C)sc2-c2ccnc(Nc3cccc(OC4CCN(C(=O)CN5CCc6cc(C7CCC(=O)NC7=O)ccc6C5)CC4)c3)n2)c1F (racemic) = ?
10 to 50 nM

Notebook entry, BRAF V600E (Homo sapiens, UniProt P15056, V600E) assay: DC50 of CCCS(=O)(=O)Nc1cccc(-c2nc(C3CCN(CC4CCN(C(=O)[C@H]5CC[C@H](Oc6ccc(C7CCC(=O)NC7=O)cc6)CC5)CC4)CC3)sc2-c2ccnc(N)n2)c1F (mixture of isomers) = ?
< 10 nM

Notebook entry, BRAF V600E (Homo sapiens, UniProt P15056, V600E) assay: DC50 of CCCS(=O)(=O)Nc1cccc(-c2nc(C3CCC4(CC3)CCN(C(=O)CCCCCc3ccc5c(c3)C(=O)N(C3CCC(=O)NC3=O)C5)CC4)sc2-c2ccnc(N)n2)c1F (racemic) = ?
< 10 nM

Notebook entry, BRAF V600E (Homo sapiens, UniProt P15056, V600E) assay: DC50 of CCCS(=O)(=O)Nc1cccc(-c2cn(C3CCN(C(=O)C4CCN(C(=O)C5CCN(c6ccc(C7CCC(=O)NC7=O)cc6)CC5)CC4)CC3)nc2-c2ccncc2)c1F (racemic) = ?
50 to 500 nM

* * *

- System: BRAF G469A (Homo sapiens, UniProt P15056, G469A)
- Construct: Horizon Discovery (HCT-116 BRAF−/− cells); host or cells: HCT-116 BRAF−/− cells, clone 34, lentiviral transduction
- Assay protocol: BRAF HiBiT degradation assay, C-terminal HiBiT-tagged BRAF G469A overexpressed in HCT-116 BRAF−/− cells (clone 34), Nano-Glo HiBiT Lytic assay
- Type: cell-based
- Test conditions: BRAF G469A (Class 2), HCT-116 BRAF−/− cells; observed Dmax relative to DMSO control
- Experimental: An A375 cell line expressing a homozygous V600E mutation was purchased from ATCC (Manassas, VA, USA). […] HiBiT signal was measured by a Nano-Glo HiBiT Lytic assay (Promega cat. no. N3050). […] Luminesce units (LU) were read on an EnVision plate reader 2105 (Perkin Elmer). Percent protein remaining and viability remaining per sample were calculated as follows: […]
Experimental endpoint: Dmax

In the examples that follow, each entry is paired with its recorded Dmax.
* O=C1CCC(c2c(F)cc(N3CCC(CN4CCN(c5ccc(-n6cc(-c7cc(Cl)cc(NS(=O)(=O)N8CCCC8)c7F)c(-c7ccncc7)n6)cc5)CC4)CC3)cc2F)C(=O)N1 (racemic) | 30 to 70%
* O=C1CCC(c2ccc(N3CCC(F)(CN4CCN(c5ccc(-n6cc(-c7cc(Cl)cc(NS(=O)(=O)N8CCCC8)c7F)c(-c7ccncc7)n6)cc5)CC4)CC3)cc2)C(=O)N1 (racemic) | > 70%
* O=C1CCC(c2ccc(N3CCC(CN4CCN(c5cc(F)c(-n6cc(-c7cc(Cl)cc(NS(=O)(=O)N8CCCC8)c7F)c(-c7ccncc7)n6)cc5F)CC4)CC3)nc2)C(=O)N1 (racemic) | 30 to 70%

Quick check: Dmax of O=C1CCC(c2cc(F)c(N3CCC(CN4CCN(c5ccc(-n6cc(-c7cc(Cl)cc(NS(=O)(=O)N8CCCC8)c7F)c(-c7ccncc7)n6)cc5)CC4)CC3)cc2F)C(=O)N1 (racemic) ?
30 to 70%

Quick check: Dmax of CCCS(=O)(=O)Nc1cccc(-c2nc(C3CCC4(CC3)CCN(CC3CCN(c5ccc(C6CCC(=O)NC6=O)cn5)CC3)CC4)sc2-c2ccnc(N)n2)c1F (racemic) ?
< 30%

Quick check: Dmax of CCC(C)S(=O)(=O)Nc1cc(Cl)cc(-c2cn(-c3ccc(N4CCN(CC5CCN(c6ccc(N7CCC(=O)NC7=O)cc6)CC5)CC4)cc3)nc2-c2ccncc2)c1F (racemic) ?
30 to 70%

Quick check: Dmax of O=C1CC[C@H](c2ccc(N3CCC(CN4CCN(c5cnc(-n6cc(-c7cc(Cl)cc(NS(=O)(=O)N8CCCC8)c7F)c(-c7ccncc7)n6)nc5)CC4)CC3)cc2)C(=O)N1 ?
30 to 70%

Quick check: Dmax of C[C@@H]1CN(c2ccc(-n3cc(-c4cc(Cl)cc(NS(=O)(=O)N5CC[C@@H](F)C5)c4F)c(-c4ccncc4)n3)nc2)CCN1CC1CCN(c2ccc([C@H]3CCC(=O)NC3=O)cc2)CC1 ?
> 70%

Quick check: Dmax of CCCS(=O)(=O)Nc1cc(Cl)cc(-c2cn(-c3ccc(N4CCN(CC5CCN(c6ccc(C7CCC(=O)NC7=O)cn6)CC5)[C@H](C)C4)cc3)nc2-c2ccncc2)c1F (mixture of isomers) ?
> 70%

Quick check: Dmax of O=C1CCN(c2ccc(N3CCC(CN4CCN(c5ccc(-n6cc(-c7cc(Cl)cc(NS(=O)(=O)N8CCCC8)c7F)c(-c7ccncc7)n6)cc5F)CC4)CC3)cc2)C(=O)N1 ?
30 to 70%
